Measured CC50, listed per entry.
tested on: JIMT-1; test: Cytotoxicity against human JIMT-1 cells assessed as reduction in cell viability incubated for 48 hrs by MTS assay; assay type: functional, cell-based; conditions: JIMT-1, time 48 hrs

# molecule, unit-of-measure, reported-relation, CC50
records = [
    ("CCCCCCCCCCCCCCCCOC[C@H](CO[C@@H]1O[C@H](CN)[C@@H](O)[C@H](O)[C@H]1N)OC", "µM", "=", 3.5),
    ("CCCCCCCCCCCCCCCCOC[C@H](CO[C@@H]1O[C@@H](CO)[C@H](O)[C@@H](O)[C@@H]1O)OC", "µM", "=", 6.5),
    ("CCCCCCCCCCCCCCCCOC[C@H](CN)O[C@@H]1O[C@@H](C)[C@H](O)[C@@H](O)[C@H]1O", "µM", "=", 5.5),
    ("CCCCCCCCCCCCCCCCOC[C@H](CO[C@@H]1O[C@H](CO)[C@@H](O)[C@H](O)[C@H]1N)OC", "µM", "=", 9),
    ("O=C(O)CCCc1ccc(N(CCCl)CCCl)cc1 [CHLORAMBUCIL]", "µM", ">", 150),
]
